system: A549 NSCLC; assay: NCI tumour cell line growth inhibition, 48 h
readoutKind: TGI

Sample answers from the record:
- O=C1C=CC=C/C1=C1\N=C(c2ccccc2OCC(=O)c2ccc(Br)cc2)SS1: > 100 µM
- CCCCCCCCCCN(CCCCCCCCCC)C(=O)COc1c2cc(C(C)(C)C)cc1Cc1cc(C(C)(C)C)cc(c1OCC(=O)N(CCCCCCCCCC)CCCCCCCCCC)Cc1cc(C(C)(C)C)cc(c1OCC(=O)N(CCCCCCCCCC)CCCCCCCCCC)Cc1cc(C(C)(C)C)cc(c1OCC(=O)N(CCCCCCCCCC)CCCCCCCCCC)C2: 30.4 µM
- CCN(CC)CC(=O)O[C@]1(CC)C(=O)OCc2c1cc1n(c2=O)Cc2cc3ccccc3nc2-1: 2.37 µM
- CCn1c2ccccc2n2c(=O)c3c(c(C#N)c12)CCCC3: > 100 µM
- CC(C)c1ccc(C(c2ccc(OCC(=O)O)cc2)c2ccc(C(C)C)cc(=O)c2O)c(O)c(=O)c1: 21.3 µM
- NCCCCC(N)C(=O)NCCNc1ccc(NCCNC(=O)C(N)CCCCN)c2c1C(=O)c1ccccc1C2=O (stereo not given): > 100 µM

What TGI value was documented for this compound, c1ccc2c(c1)nc1n2CNC1 ?
> 100 µM

Same for N#C/C(N)=C(\C#N)N=CN
> 100 µM

Also check N#Cc1c(Cl)c2cc([N+](=O)[O-])ccc2n2c1nc1ccccc12
> 100 µM

Moving on to the next compound: CN(C)/C=N/S(=O)(=O)c1nn2c(C=O)c(-c3ccc(Cl)cc3)nc2s1
20.2 µM

Same thing, different compound: Cc1ccc(NC(=S)N/N=C(/c2ccccc2)c2ccccn2)cc1
15.7 µM

====

Here, each record is paired with measured TGI data.
test system: HOP-62 NSCLC; test: NCI tumour cell line growth inhibition, 48 h

Would you please look over these solved cases?
- Fc1ccc(-c2nn3ncccc3c2-c2ccnc(Nc3ccc4c(c3)OCCO4)n2)cc1: > 25 µM
- O=C1/C(=C/c2ccc(O)cc2)CSc2ccc(Cl)cc21: 45 µM

Record lookup: for HOP-62 NSCLC, what TGI belongs to COc1ccc(-n2cc(-c3cc(OC)c(OC)c(OC)c3)[nH]c2=O)cc1Cl ?
> 100 µM

One more compound: COc1ccccc1Cn1cc2c(c1-c1ccccc1)CCc1cnoc1-2
> 100 µM

Now the compound O=c1oc2cc(O)ccc2c(O)c1C(c1ccccc1F)c1c(O)c2ccc(O)cc2oc1=O
> 100 µM

Another compound: Cc1[nH]c2ccccc2c1C1Cc2ccccc2N1C(=O)/C(Cl)=C/c1ccccc1 (stereo not given)
> 100 µM

Param item: O=C1NN(C2=NNC3(C(=O)N2)c2ccccc2-c2ccccc23)C(c2ccccc2)=N/C1=C/c1ccc(O)cc1
138 µg/mL

Then this compound: COC(=O)C(=O)C(C(=O)C=C(C)C)C(=O)C(=O)Nc1ccc(C)cc1C (stereo not given)
> 100 µM

Try this compound too: CCOC(=O)CCn1[nH]c(=O)c(Cl)c(Cl)c1=O
> 100 µM

Likewise for COc1cc(/C=C2\CN(C)CC3=C2NC(=S)NC3c2cc(OC)c(OC)c(OC)c2)cc(OC)c1OC (stereo not given) ?
> 100 µM

Proceed to CCNc1cc2c(cc1O)CC[C@@H]1[C@@H]2CC[C@]2(C)[C@@H](O)CC[C@@H]12
23.2 µM

Query COC(=O)CCc1cc(O)c2c(c1)C(C(=O)OC)C(c1ccc(O)c(O)c1)O2 (stereo not given) next
> 100 µM

Same thing, different compound: CS(=O)(=O)c1cc(=O)c2ccccc2s1
41.3 µM

Another compound: O=C1NC2OCC(O)C(O)C2O1 (stereo not given)
> 100 µM

Then what about the compound Cc1ccc(-c2c3nc(c(-c4ccc(C)cc4)c4ccc([nH]4)c(-c4ccc(OCC5COC(C)(C)O5)cc4)c4nc(c(-c5ccc(C)cc5)c5ccc2[nH]5)C=C4)C=C3)cc1 (stereo not given) ?
> 31.6 µM

Try this compound too: CN(/N=C/c1ccc(OCc2cccc(COc3ccc(C=O)cc3)n2)cc1)c1cnn(-c2ccc(Cl)cc2Cl)c(=O)c1Cl
> 100 µM

Please give the result for N#CCc1ccc(C(C#N)/C(CCCC(=O)Nc2cccc([N+](=O)[O-])c2)=N/NC(N)=S)cc1 (stereo not given) too.
> 100 µM

Next compound: COc1ccc(/C=C\c2cc(OC)c(OC)c(OC)c2)cc1OC(=O)NCCN(C)C
> 100 µM

Now this one: Nc1ncn(C2CC(O)C(CO)O2)c(=O)n1 (stereo not given)
> 319 µM

Now consider COc1ccc2nc3cc(Cl)ccc3c(NCCN)c2c1 and answer again.
3.03 µM
